- Test system: SK-MEL-5 melanoma
- Test Method Notes: NCI-60 one-dose screen, 48 h (100 = growth as untreated, 0 = no growth, -100 = all killed)
- Run Parameters: 10 µM unless noted
The panel holds about 83,000 compounds, 20% with a hit somewhere; the sample as a whole holds those more often.
# cutoff 60% applies to growth; >= gives criterion met, < gives criterion not met

INSERT INTO results (molecule, target_desc, label_value) VALUES
  ('c1ccc(CCN2CCCCC2Cc2ccccc2)cc1 (centres undefined)', 'SK-MEL-5 melanoma', 'criterion met'),
  ('C/C1=C/C(=O)O[C@@H]2C[C@@H](CC[C@H](C)/C=C\C=C\CC1)O[C@@](OCCc1ccccc1)([C@@H]1CSC(=O)N1)C2', 'SK-MEL-5 melanoma', 'criterion not met'),
  ('CCN(CC)c1ccc(C=C2C(=O)NC(=S)NC2=O)cc1', 'SK-MEL-5 melanoma', 'criterion met'),
  ('O=C(CCc1ccco1)NC1CCN(CC2(c3ccc(Cl)cc3)CCC2)CC1', 'SK-MEL-5 melanoma', 'criterion not met'),
  ('CC(N)Cc1ccc(O)cc1 (centres undefined)', 'SK-MEL-5 melanoma', 'criterion met'),
  ('CC(C)OC(=S)[S-].[Au+].c1ccc([PH+](c2ccccc2)c2ccccc2)cc1', 'SK-MEL-5 melanoma', 'criterion not met'),
  ('CC(C)C1c2ccc(O)cc2Oc2nc(N)c(C#N)c(N)c21 (centres undefined)', 'SK-MEL-5 melanoma', 'criterion met'),
  ('CN=C(NN)NN', 'SK-MEL-5 melanoma', 'criterion met');

----------
- Tested on: SK-MEL-2 melanoma
- Test Method Notes: NCI-60 one-dose screen, 48 h
- Run Parameters: 10 µM unless noted
About 83,000 compounds went through this panel and 20% of them were active in at least one assay; those are over-represented in the sample as a whole. The source made the active and inactive calls. The calls were made as follows: active = growth percent below 10; inactive = the rest.
Outcome codes: active, inactive

INSERT INTO assay_data (chemical_smiles, label_value) VALUES
  ('CC(C)(O)/C=C/C(=O)[C@](C)(O)[C@H]1[C@H](O)C[C@@]2(C)[C@@H]3CC=C4[C@@H](C=C(O)C(=O)C4(C)C)[C@]3(C)C(=O)C[C@]12C', 'active'),
  ('CC1(C)N=C(N)N=C(N)N1c1ccc(CCCCc2ccc(S(=O)(=O)F)cc2)c(Cl)c1', 'inactive'),
  ('Cc1cc(C)nc(C)c1.[Cl][Hg][Cl]', 'inactive'),
  ('C=CCC1(CC)C(=O)NC(=S)NC1=O', 'inactive'),
  ('C[C@]12CC[C@@H]3c4ccc(OC(=O)Cc5ccc(N(CCCl)CCCl)cc5)cc4CC[C@H]3[C@@H]1CC[C@@H]2OC(=O)Cc1ccc(N(CCCl)CCCl)cc1', 'active'),
  ('COc1cc[c]([Hg][Cl])cc1', 'inactive');

----------
- Tested on: HL-60(TB) leukemia
- Test Method Notes: NCI-60 one-dose screen, 48 h
- Run Parameters: 10 µM unless noted
This is part of a sample that, as a whole, favours compounds with a hit. Of some 83,000 tested, about 20% had one in any assay. Active and inactive are the calls of the source. The calls were made as follows: active = growth percent below 10; inactive = the rest.
Labels: t for active, f for inactive

INSERT INTO results (molecule, label_value) VALUES
  ('O=C(O)CCCc1ccccc1', 'f'),
  ('OC(c1cc2cc(Br)ccc2c2cc(Br)ccc12)C1CCCCN1 (centres undefined)', 't'),
  ('CC1=C(/C=C/C(C)=C/C=C/C(C)=C/C(=O)Nc2ccc(O)cc2)C(C)(C)CCC1', 't'),
  ('C[C@H]1[C@H](C)CC[C@]2(C(=O)O)CC[C@]3(C)C(=CC[C@@H]4[C@@]5(C)C/C(=C/c6ccco6)C(=O)C(C)(C)[C@@H]5CC[C@]43C)[C@H]12', 't');

----------
- Tested on: HL-60(TB) leukemia
- Test Method Notes: NCI-60 one-dose screen, 48 h (100 = growth as untreated, 0 = no growth, -100 = all killed)
- Run Parameters: 10 µM unless noted
The panel holds about 83,000 compounds, 20% with a hit somewhere; the sample as a whole holds those more often.
Quantity Kind: growth (%)

INSERT INTO results (compound, target_desc, uom, observed) VALUES
  ('C=C(C)[C@@H]1CC[C@]2(COCCCNCCCN)CC[C@]3(C)[C@H](CC[C@@H]4[C@@]5(C)CC[C@H](OCCCN)C(C)(C)[C@@H]5CC[C@]43C)[C@@H]12', 'HL-60(TB) leukemia', '%', 48.2),
  ('CS(=O)(=O)OC1CC(n2ccc(=O)[nH]c2=O)OC1COC(c1ccccc1)(c1ccccc1)c1ccccc1 (stereo not drawn)', 'HL-60(TB) leukemia', '%', 97.6),
  ('Nc1nc(NC(=O)Nc2ccc(C(=O)O)cc2)nn1-c1ccc(S(N)(=O)=O)cc1', 'HL-60(TB) leukemia', '%', 102),
  ('C=C(C)[C@@H]1CC[C@]2(C(=O)Nc3ccccn3)CC[C@]3(C)[C@H](CC[C@@H]4[C@@]5(C)CCCNC(C)(C)[C@@H]5CC[C@]43C)[C@@H]12', 'HL-60(TB) leukemia', '%', -38.1),
  ('Cc1ccc(S(=O)(=O)N/N=C2\CC3CCC2(C)C3(C)C)cc1 (stereo not drawn)', 'HL-60(TB) leukemia', '%', 116),
  ('COc1ccc(N=C2NN=C(c3c[nH]c4ccccc34)CS2)cc1OC', 'HL-60(TB) leukemia', '%', 47),
  ('COCCOCCOCCOCCOc1ccc2c(c1)C(=O)c1nc3ncccc3c(=O)n1-2', 'HL-60(TB) leukemia', '%', -64.6),
  ('NS(=O)(=O)c1ccc(N2N=C(c3ccc(Br)cc3)CC2c2cn(-c3ccccc3)nc2-c2ccc(Cl)cc2)cc1 (stereo not drawn)', 'HL-60(TB) leukemia', '%', 89.6),
  ('CCOc1ccc(S(=O)(=O)Nc2ccc3c(c2)N(S(=O)(=O)CC)CCC3)cc1', 'HL-60(TB) leukemia', '%', 77.1),
  ('Clc1nc(Cl)c2c(ncn2C/C=C\Cn2cnc3c(Cl)nc(Cl)nc32)n1', 'HL-60(TB) leukemia', '%', -80.7),
  ('CCCCCCCC(C)NCCO (stereo not drawn)', 'HL-60(TB) leukemia', '%', 101),
  ('COC(=O)c1ccc2c(c1)Oc1ccc(Cl)cc1-c1cc(C)nn1-2', 'HL-60(TB) leukemia', '%', 103),
  ('Cn1cc(-c2nonc2-c2c[nH]c3ccc(F)cc23)c2cccnc21', 'HL-60(TB) leukemia', '%', 91.7),
  ('C/C(=C\c1cc(Cl)ccc1OCC(=O)O)[N+](=O)[O-]', 'HL-60(TB) leukemia', '%', 52.5),
  ('COc1ccc2cc(-c3nn(-c4ccc(C(=O)O)cc4)cc3CO)ccc2c1', 'HL-60(TB) leukemia', '%', 50.3),
  ('COc1ccc(C2OC(N)=C(O)C2=O)cc1OC (stereo not drawn)', 'HL-60(TB) leukemia', '%', 92.6),
  ('Cc1ccc(N)c(O)c1', 'HL-60(TB) leukemia', '%', 128),
  ('CO[C@H]1C[C@@H]2CC[C@@H](C)[C@@](O)(O2)C(=O)C(=O)N2CCCC[C@H]2C(=O)O[C@H]([C@H](C)C[C@@H]2CC[C@@H](OP(C)(C)=O)[C@H](OC)C2)CC(=O)[C@H](C)/C=C(\C)[C@@H](O)[C@@H](OC)C(=O)[C@H](C)C[C@H](C)\C=C/C=C/C=C/1C', 'HL-60(TB) leukemia', '%', 76.4);

----------
- Tested on: OVCAR-4 ovarian
- Test Method Notes: NCI-60 one-dose screen, 48 h (100 = growth as untreated, 0 = no growth, -100 = all killed)
- Run Parameters: 10 µM unless noted
- Experimental: Growth inhibition of the OVCAR-4 human tumor cell line is measured as a screen for anti-cancer activity. Cells are grown in 96 well plates and exposed to the test compound for 48 hours. Compounds are tested at a single concentration, which is 10^-5 M for most compounds. The reported endpoint is percent growth (GI% or GIPRCNT), where numbers from 0 - 100% represent growth inhibition, and numbers from -100% - 0 represent cell death. For example, a value of 40 represents 60% growth inhibition. […]
Compounds without any hit were thinned out: in the full panel of roughly 83,000, 20% have a hit. Activity calls are given as the source filed them. Rule for the calls: active = growth percent below 10; inactive = the rest.
Quantity Kind: growth

INSERT INTO results (compound, observed) VALUES
  ('C[C@]12CC[C@H](OC3OC(O)C(O)C(O)C3O)C=C1CCC1C2CC[C@]2(C)[C@@H](c3ccc(=O)oc3)CC[C@]12O (some centres undefined)', '-41.9% (active)'),
  ('O=C1NC(=O)C(CN2C(=O)C3(c4ccccc42)[C@H](Cl)C(=O)N3c2ccccc2)C(=O)N1 (some centres undefined)', '97.6% (inactive)'),
  ('N#CC1=C(N)Oc2cc3c(cc2C1c1cccs1)OCO3 (centres undefined)', '52.8% (inactive)'),
  ('[Br][Pb]([c]1ccccc1)([c]1ccccc1)[c]1ccccc1', '-100% (active)');
